# System: SF-268 CNS
# Experiment notes: NCI tumour cell line growth inhibition, 48 h
Outcome measure: TGI

COc1cc2cc(C(=O)N3CC(COS(C)(=O)=O)c4c3cc([N+](=O)[O-])c3ccccc43)[nH]c2c(OC)c1OC (stereo not given): > 31.6 µM
C=CCSc1nn(CC=C)cc2ncnc1-2: > 100 µM
CNC(Cc1ccccc1)c1cccc(OC)c1O (stereo not given): > 100 µM

Next, consider the following compound.
QUERY: // Input: CC(=O)Nc1ccc(/C=c2\sc3nnc(/C=C/c4ccccc4)n3c2=O)cc1 . Output its TGI only.
RESULT: > 50 µM

====

# System: T-47D breast
# Experiment notes: NCI tumour cell line growth inhibition, 48 h
Outcome measure: TGI (µM)
Report only the number, with the unit µM understood.

Example entries begin here.
Clc1ccc2c(NCCNc3nc(-c4ccccc4)cc(-c4ccccc4)n3)ccnc2c1: 3.47
CC(C)(C)SC1=CCC[C@@H](P(=O)(c2ccccc2)c2ccccc2)[C@@H]2CCC[C@@H]12: 33.3
O=[N+]([O-])c1ccc2nc(N/N=C/c3ccc(O)cc3)sc2c1: 13.2

QUERY: Indicate the recorded TGI value for this compound: COC(=O)[C@]1(c2cc3ccccc3n2S(=O)(=O)c2ccccc2)CC2CCC1NC2 (stereo not given in full)
RESULT: 27.2

====

# System: TK-10 renal
# Experiment notes: NCI tumour cell line growth inhibition, 48 h
Outcome measure: GI50

QUERY: Return GI50 (reported value) for this compound: C=CCSc1n[nH]c(-c2cccs2)n1
RESULT: > 100000 nM

QUERY: Please report the measured GI50 for COc1cc2cc(C(=O)O)[nH]c2cc1OCc1ccccc1
RESULT: > 100000 nM

QUERY: Identify GI50 associated with the compound O=S(=O)(Nc1ccc(Cl)c(C(F)(F)F)c1)c1ccc(-c2cnc(C3CC3)o2)cc1
RESULT: 1800 nM

QUERY: Supply reported GI50 belonging to this compound: COc1cc(/C=C2\C(=O)N(c3c(Cl)cccc3Cl)c3ccccc32)cc(OC)c1O
RESULT: 1210 nM

QUERY: Determine its reported GI50: N#Cc1ccc(-n2cnc(NC(=O)[C@H]3CCN(C#N)C3)c2)cc1
RESULT: 1490 nM

QUERY: Please supply the value of reported GI50 for the item Cc1ccc(NC2=C(Cl)C(=O)c3nc(C)ccc3C2=O)cc1
RESULT: 2270 nM

====

Examples of compounds with documented TGI follow.
# Tested on: M14 melanoma
# Experiment notes: NCI tumour cell line growth inhibition, 48 h

COc1cc2cc(C(=O)O)[nH]c2cc1OCc1ccccc1: > 100 µM
COCCOC(C)C(/C=N/NC(N)=S)=N/NC(N)=S (stereo unspecified): > 100 µM
CN1N=C(c2ccncc2)OC1c1ccc(Cl)c(Cl)c1 (stereo unspecified): > 100 µM
O=C(O)[C@@H]1C[C@@H](O)CN1: > 100 µM
C[C@]12CC[C@H]3[C@@H](C[C@@H]4SC(Nc5cccc(F)c5)=N[C@@]45CC(=O)CC[C@]35C)[C@@H]1CCC2=O: 7.23 µM

QUERY: Report measured TGI; entry is O=C1/C(=C\c2ccccc2)c2ccccc2N1Cc1ccccc1
RESULT: 23.9 µM

====

# System: NCI/ADR-RES ovarian
# Experiment notes: NCI tumour cell line growth inhibition, 48 h
Outcome measure: GI50

Known GI50 results, listed for orientation:
O=C(Nc1ccc(-n2cc(-c3ccncc3)c(-c3ccc(Cl)c(O)c3)n2)cc1)c1cc(Cl)cc(Cl)c1: 6100 nM
O=C(c1cccs1)c1c(C(F)(F)F)n([O-])c2cc(F)c(F)cc2[n+]1=O: 2100 nM
CS(=O)(=O)c1ccc(C(F)(F)F)cc1NC(=O)Nc1cnc(Oc2ccc(-c3cc(Cl)cnc3N)cc2)nc1: 2920 nM
NC(N)=NC(N)=NCCc1ccccc1: > 100000 nM
N#Cc1ccc(-n2cnc(NC(=O)[C@H]3CCN(C#N)C3)c2)cc1: 2410 nM

QUERY: Quick one: give measured GI50 for CCOC(=O)C(=Cc1ccc(Br)cc1)C(=O)OCC
RESULT: 2780 nM

QUERY: Read the entry C[C@]12CC[C@H]3[C@@H](C[C@@H]4SC(Nc5cccc(F)c5)=N[C@@]45CC(=O)CC[C@]35C)[C@@H]1CCC2=O and write its reported GI50.
RESULT: 2810 nM

QUERY: Return the recorded GI50 value; entry: COc1cc2cc(C(=O)O)[nH]c2cc1OCc1ccccc1
RESULT: > 100000 nM

QUERY: Give GI50 for C=CC(=O)Nc1cc2c(Nc3ccc(OCc4ccccn4)c(Cl)c3)ncnc2cc1OCCN1CCOCC1
RESULT: 3770 nM

QUERY: Return reported GI50. Input molecule: O=S(=O)(Nc1ccc(Cl)c(C(F)(F)F)c1)c1ccc(-c2cnc(C3CC3)o2)cc1
RESULT: 163 nM

QUERY: Item O=C(NCCNCCO)c1ccc2oc3cc4ccccc4c(=O)n3c2c1 : provide GI50
RESULT: > 50000 nM

QUERY: Hello, please tell me recorded GI50 for this one: COc1cc(/C=C2\C(=O)N(c3c(Cl)cccc3Cl)c3ccccc32)cc(OC)c1O
RESULT: 793 nM

QUERY: Identify the reported GI50 for the following entry. Cc1ccnc2c1NC(=O)c1cccnc1N2C1CC1
RESULT: > 100000 nM

QUERY: Complete the entry with GI50 for O=C=Nc1ccc(Cc2ccc(N=C=O)cc2)cc1 (tested in a mixture with another compound)
RESULT: > 25 µg/mL

QUERY: # return recorded GI50 for input C/C=C(/C)C(=O)OC1C=C(CO)C(=O)C(OC(=O)/C(C)=C\C)C1C(C)C (centres undefined)
RESULT: 1570 nM

QUERY: Please report the measured GI50 for COC(=O)/C(=C/N1CCN(C(=O)c2ccco2)C1=S)C(C)=O
RESULT: 22200 nM

QUERY: Let me know recorded GI50 for O=C1C(Nc2ccccn2)=C(I)C(=O)c2ncccc21 , thanks.
RESULT: 1250 nM

QUERY: Report GI50 for NC1=C(c2nc(-c3cc4ccccc4oc3=O)cs2)C(c2ccco2)c2c(c3ccccc3oc2=O)O1 (centres undefined)
RESULT: > 150 µg/mL

QUERY: For the molecule COc1ccc(OC)c(-c2nc3sccn3c2/C=C2/C(=O)Nc3ccccc32)c1 , give its reported GI50.
RESULT: 1420 nM

====

# Tested on: U251 CNS
# Experiment notes: NCI tumour cell line growth inhibition, 48 h
Outcome measure: TGI (µM)
Answer in µM, number only, no unit symbol.

Example compounds with recorded TGI:
COc1ccc(OC)c(-c2nc3sccn3c2/C=C2/C(=O)Nc3ccccc32)c1: 15
NC(=O)c1c(OCc2c(F)cc(Br)cc2F)nsc1NC(=O)NCCCCN1CCCC1: 5.51
COc1cc(/C=C2\C(=O)N(c3c(Cl)cccc3Cl)c3ccccc32)cc(OC)c1O: 13.5
O=C(Nc1cc(C(F)(F)F)ccc1Cl)C(=O)C(C(=O)c1ccc2ccccc2c1)C1OC(=O)c2ccccc21 (stereo unspecified): 14.3
O=C(O)/C(O)=C1/C=C(c2ccccc2)c2ccccc21: 35.9

QUERY: Output measured TGI for this item: Cc1cccc(NC(=O)CC2C(=O)Nc3ccccc3S2(=O)=O)c1C (stereo unspecified)
RESULT: 78.1

QUERY: Kindly indicate its recorded TGI. Item: O=[N+]([O-])c1ccc(N(CCO)CCO)c2c1no[n+]2[O-]
RESULT: 2.37

====

# Tested on: U251 CNS
# Experiment notes: NCI tumour cell line growth inhibition, 48 h
Outcome measure: TGI (µM)
Report as a plain number; the unit µM is understood.

Cc1cc(N2CCN(C)CC2)nc(NC2CCCC(Nc3ccnc4cc(Cl)ccc34)C2)n1 (stereo unspecified): 4.33
O=C1Nc2ccccc2SC1C1SC(=S)N(Cc2ccccc2)C1=O (stereo unspecified): 12.2
CCOC(=O)C(=Cc1ccc(Br)cc1)C(=O)OCC: 2.98
Nc1ccc(-c2ccc(-c3nc4ccccc4[nH]3)cc2)cc1: 44.5

We now examine a further compound.
QUERY: Indicate its recorded TGI; the compound in question is Nc1nc(Cl)c2ncn(Cc3ccccc3CCl)c2n1
RESULT: 13.4

====

Item-by-item account of TGI
# System: MCF7 breast
# Experiment notes: NCI tumour cell line growth inhibition, 48 h

Consider the reported TGI for these molecules:
CC(=O)Oc1ccc(-c2cc3ccccc3oc2=O)cc1OC(C)=O: > 100 µM
CC(C)CCNC(=O)c1ccc(CNC(=O)/C=C/c2ccc(-c3ccccc3[N+](=O)[O-])o2)cc1: > 100 µM
CCN(C)S(=O)(=O)Nc1cccc(Nc2ncnc3cc(NC(=O)CCl)ccc23)c1Cl: 8.33 µM
O=[N+]([O-])c1cc(Cl)ccc1S(=O)(=O)c1ccccc1: > 100 µM
Cc1ccc(C2SC(N)=Nc3c2c(C)nn3C(=O)c2ccncc2)cc1 (stereo not drawn): > 10 µM

QUERY: Provide only the value of recorded TGI for C=CCCCC1(C)CCCCNC1=O (stereo not drawn)
RESULT: > 10 µM

QUERY: Find the measured TGI of C/C=C(/C)C(=O)OC1C=C(CO)C(=O)C(OC(=O)/C(C)=C\C)C1C(C)C (stereo not drawn) and report it.
RESULT: 2.16 µM

QUERY: Look up TGI of Cc1ccc(S(=O)(=O)n2ccn3c(=O)cc(C)nc23)cc1 and report it.
RESULT: > 10 µM
